# MTD annotations
- protocol.summary: in vivo
- experimental.context: mouse, MTD (maximum tolerated dose)

>  <smiles.structure>
CCc1nc2ccc(Cl)cn2c1C(=O)NCc1ccc(N2CCSCC2)c(F)c1

>  <MTD>
≥ 250 mg/kg

$$$$
>  <smiles.structure>
Cc1ccn2c(C(=O)NCc3ccc(N4CCCN(c5ccc(C(F)(F)F)cc5)CC4)c(F)c3)c(C)nc2c1

>  <MTD>
≥ 250 mg/kg

$$$$
